Each entry below carries its recorded switch fluorescence ratio.
- Tested on: ATP;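 also: ATP exposure 15 min at 22 °C before imaging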
- protocol.summary: switch fluorescence ratio, 500 uM ATP over buffer (Cy3 cluster intensity, sum of 5 cycles each) (fold (ratio)); higher = stronger signal-on switching upon ATP binding; sequences stand for … in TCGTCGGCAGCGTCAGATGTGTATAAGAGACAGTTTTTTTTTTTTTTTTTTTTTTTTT…TC
- measurement.setup: aptamer strand: ATP DNA aptamer (quencher-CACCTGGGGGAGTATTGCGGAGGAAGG + anchor), 100 nM annealed; ATP concentration: 500 uM
observed.property: switch fluorescence ratio

{"sequence.entry": "TATTACCTTA", "readout.number": 1.03}
{"sequence.entry": "GTTTGGGTGC", "readout.number": 1.07}
{"sequence.entry": "AGTGTTTTTG", "readout.number": 0.994}
{"sequence.entry": "TCAAGGCCGG", "readout.number": 1.02}
{"sequence.entry": "TATGAGTCGA", "readout.number": 1}
{"sequence.entry": "TCACATTATA", "readout.number": 1.01}
{"sequence.entry": "TTTATTATTT", "readout.number": 0.989}
{"sequence.entry": "AATAGGACAA", "readout.number": 0.982}
{"sequence.entry": "AAGGGTTATG", "readout.number": 0.994}
{"sequence.entry": "TTTAGATACG", "readout.number": 1.05}
{"sequence.entry": "ATTCCGGGGA", "readout.number": 1.23}
{"sequence.entry": "CATTACGGCG", "readout.number": 0.995}
{"sequence.entry": "TTCCGGGGCG", "readout.number": 0.991}
{"sequence.entry": "GCCTGCTGGA", "readout.number": 1}
{"sequence.entry": "TGAGCATGCT", "readout.number": 1}
{"sequence.entry": "GGTCTGGTTT", "readout.number": 0.956}
{"sequence.entry": "CATGGGGTTT", "readout.number": 1.01}
{"sequence.entry": "TTGATGGTAA", "readout.number": 0.977}
{"sequence.entry": "CTGGTCCGGT", "readout.number": 0.994}
{"sequence.entry": "TTAATCGTTA", "readout.number": 1.01}
{"sequence.entry": "GGGTGGGTTT", "readout.number": 1}
{"sequence.entry": "ATGATCGATG", "readout.number": 0.979}
{"sequence.entry": "TTATTAGAGC", "readout.number": 0.958}
{"sequence.entry": "AGGGGTGATA", "readout.number": 1.02}
{"sequence.entry": "TCGATGTCGT", "readout.number": 0.993}
{"sequence.entry": "TTAGTACCCA", "readout.number": 1.03}
{"sequence.entry": "CTCACCACGA", "readout.number": 1.09}
{"sequence.entry": "GGGCGCAACG", "readout.number": 1.05}
{"sequence.entry": "CAGATTTTTA", "readout.number": 1.01}
{"sequence.entry": "TTGCGTTGTG", "readout.number": 0.992}
{"sequence.entry": "TAGTTCTCTT", "readout.number": 0.989}
{"sequence.entry": "CGGCGATGTT", "readout.number": 0.987}
{"sequence.entry": "TTGTCTCTTT", "readout.number": 0.993}
{"sequence.entry": "AGTTTTTGGG", "readout.number": 0.97}
{"sequence.entry": "GGGCAGAGGA", "readout.number": 1.09}
{"sequence.entry": "CGCTTGGCTC", "readout.number": 1.08}
{"sequence.entry": "GTCAAGGGGA", "readout.number": 1.02}
{"sequence.entry": "TGTGAAAGAC", "readout.number": 1.04}
{"sequence.entry": "AGAAGATCAG", "readout.number": 1.02}
{"sequence.entry": "GTGTTCTTAT", "readout.number": 1.01}
{"sequence.entry": "AATATTTTCG", "readout.number": 0.998}
{"sequence.entry": "TTGACCGGAA", "readout.number": 1.14}
{"sequence.entry": "CCTGATCACC", "readout.number": 1.06}
{"sequence.entry": "TTAATGACTT", "readout.number": 1.02}
{"sequence.entry": "CCAAAGCTAG", "readout.number": 2.1}
{"sequence.entry": "AAGGGAGATT", "readout.number": 0.968}
{"sequence.entry": "GGTCTTTAGG", "readout.number": 0.992}
{"sequence.entry": "CTGGGCGGTG", "readout.number": 0.998}
{"sequence.entry": "CTAAGGGAGG", "readout.number": 0.992}
{"sequence.entry": "CAGGGGTCTA", "readout.number": 0.996}
{"sequence.entry": "AAGTTGCTAG", "readout.number": 0.998}
{"sequence.entry": "CCCCACTTGC", "readout.number": 1.32}
{"sequence.entry": "GACGCATTTT", "readout.number": 2.18}
{"sequence.entry": "TTTTTAATAC", "readout.number": 1.33}
{"sequence.entry": "GAAGATGGTT", "readout.number": 0.969}
{"sequence.entry": "GATATTTCCC", "readout.number": 0.998}
{"sequence.entry": "ATATCAAAAT", "readout.number": 1.01}
{"sequence.entry": "ATCTTCAACT", "readout.number": 1.05}
{"sequence.entry": "GGGGTAGCCC", "readout.number": 0.998}
{"sequence.entry": "GCTTGTGATC", "readout.number": 1.01}
{"sequence.entry": "AGATTTTAGG", "readout.number": 0.988}
{"sequence.entry": "GAATAAGAGA", "readout.number": 0.974}
{"sequence.entry": "TTAAAGGAGG", "readout.number": 1.02}
{"sequence.entry": "AATCCGTCAT", "readout.number": 1.14}
{"sequence.entry": "TTCAGAGCGT", "readout.number": 0.994}
{"sequence.entry": "TGTATAATTG", "readout.number": 0.993}
{"sequence.entry": "TAAAGAAAAG", "readout.number": 0.988}
{"sequence.entry": "ACGACGAAGG", "readout.number": 1.06}
{"sequence.entry": "GTGTTATGGG", "readout.number": 0.978}
{"sequence.entry": "ACTCGTTGTT", "readout.number": 1.02}
{"sequence.entry": "TCCTTGGAGG", "readout.number": 0.989}
{"sequence.entry": "TGCTGGGGCG", "readout.number": 0.988}
{"sequence.entry": "GTGGAGTTTG", "readout.number": 0.999}
{"sequence.entry": "TCATCTGCTG", "readout.number": 1.17}
{"sequence.entry": "CCAGGGGCGG", "readout.number": 1.07}
{"sequence.entry": "GCCCAAGAGT", "readout.number": 1.04}
{"sequence.entry": "GGATTGTAAG", "readout.number": 0.991}
{"sequence.entry": "TTAAATTCAT", "readout.number": 0.972}
{"sequence.entry": "TAACTCTTTT", "readout.number": 0.978}
{"sequence.entry": "AATCGCTTTT", "readout.number": 1}
{"sequence.entry": "ATCGGAAACT", "readout.number": 1.03}
{"sequence.entry": "GCTATTGGCA", "readout.number": 1.01}
{"sequence.entry": "TTCGACTTCG", "readout.number": 0.99}
{"sequence.entry": "TTGCTAATCA", "readout.number": 1}
{"sequence.entry": "TAGTAAGGGA", "readout.number": 1}
{"sequence.entry": "GGGGTTTTG", "readout.number": 0.953}
